- test.name: Human Liver Microsomal Stability (Test C)
- Assay type: in vitro ADME
- run.parameters: human, liver microsomes

compound | microsomal CLint
COc1cc(F)c(O[C@H]2CC[C@@](C)(C(=O)O)CC2)cc1C(=O)N[C@@H]1[C@H]2CC[C@H](C2)[C@@H]1C(=O)N[C@@H](C)C(C)C | < 3 µL/min/mg
COc1cc(F)c(O[C@H]2CC[C@@](C)(C(=O)O)CC2)cc1C(=O)N[C@@H]1[C@H]2CC[C@H](C2)[C@@H]1C(=O)NCC1(CF)CC1 | < 3 µL/min/mg
COc1cc(F)c(-c2ccc(F)c(C(=O)O)c2)cc1C(=O)N[C@H]1[C@@H](C(=O)Nc2cccc(S(=O)(=O)C(F)(F)F)c2)[C@@H]2C=C[C@H]1C2 (racemic) | < 3 µL/min/mg
COc1cc(C#N)c(O[C@H]2CC[C@@](C)(C(=O)O)CC2)cc1C(=O)N[C@@H]1[C@@H]2CC[C@@H](C2)[C@@H]1C(=O)NCC(C)(C)C(F)(F)F | < 4.5 µL/min/mg
COc1cc(F)c(O[C@H]2CC[C@@H](C(=O)O)CC2)cc1C(=O)N[C@@H]1[C@H]2CC[C@H](C2)[C@@H]1C(=O)Nc1cc(Cl)cnn1 | < 3 µL/min/mg

====

- assay.target: human RXFP1 (Homo sapiens, UniProt Q9HBX9)
- Sequence (Q9HBX9 1-757): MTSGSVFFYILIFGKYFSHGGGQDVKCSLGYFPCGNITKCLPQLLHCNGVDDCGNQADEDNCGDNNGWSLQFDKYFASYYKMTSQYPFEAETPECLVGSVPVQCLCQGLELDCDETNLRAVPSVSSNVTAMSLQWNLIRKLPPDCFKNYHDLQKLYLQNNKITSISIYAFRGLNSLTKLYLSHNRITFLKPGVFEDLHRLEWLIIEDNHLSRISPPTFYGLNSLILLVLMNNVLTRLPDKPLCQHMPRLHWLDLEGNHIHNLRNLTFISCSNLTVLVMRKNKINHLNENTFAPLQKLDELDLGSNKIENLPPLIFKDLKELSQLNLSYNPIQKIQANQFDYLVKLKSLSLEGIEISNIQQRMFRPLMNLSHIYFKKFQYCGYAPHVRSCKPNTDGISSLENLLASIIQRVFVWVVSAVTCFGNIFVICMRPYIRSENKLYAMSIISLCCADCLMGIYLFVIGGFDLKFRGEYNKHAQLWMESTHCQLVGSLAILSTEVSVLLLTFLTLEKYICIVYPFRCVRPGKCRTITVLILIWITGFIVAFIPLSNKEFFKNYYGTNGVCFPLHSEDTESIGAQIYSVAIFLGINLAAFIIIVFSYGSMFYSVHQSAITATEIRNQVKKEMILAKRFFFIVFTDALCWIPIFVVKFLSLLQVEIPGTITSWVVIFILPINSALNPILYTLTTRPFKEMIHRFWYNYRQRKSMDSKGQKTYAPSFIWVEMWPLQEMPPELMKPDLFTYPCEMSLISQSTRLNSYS
- test.name: RXFP1 Hu cAMP (Test A)
- Format: cell-based
- Set-up: expressed in transfected cells; host or cells: Jump-In T-REx CHO-K1 cells (ThermoFisher), induced with 10 ng/ml doxycycline for 24 h
- run.parameters: RXFP1 Hu cAMP; read-out: Test A EC50
pEC50: −log10 of the molar value.
Label TRUE when pEC50 >= 7; otherwise FALSE.

given.smiles | class.assignment
COCC1(CNC(=O)[C@H]2[C@@H]3CC[C@@H](C3)[C@H]2NC(=O)c2cc(O[C@H]3CC[C@@](C)(C(=O)O)CC3)c(F)cc2OC)CCC1 | FALSE
COc1cc(Cl)c(O[C@H]2CC[C@@](C)(C(=O)O)CC2)cc1C(=O)N[C@@H]1[C@H]2CC[C@H](C2)[C@@H]1C(=O)NC12CC(F)(C1)C2 | TRUE
CCC(C)(C)CNC(=O)[C@H]1[C@@H]2CC[C@@H](C2)[C@H]1NC(=O)c1cc(O[C@H]2CC[C@@](C)(C(=O)O)CC2)c(F)cc1OC | TRUE
COc1cc(C#N)c(O[C@H]2CC[C@@](C)(C(=O)O)CC2)cc1C(=O)N[C@@H]1[C@H]2CC[C@H](C2)[C@@H]1C(=O)NCC(=O)NC(C)C | FALSE
COc1cc(C#N)c(O[C@H]2C[C@@](C)(C(=O)O)C2)cc1C(=O)N[C@@H]1[C@H]2CC[C@H](C2)[C@@H]1C(=O)NCC1(C)CCC1 | FALSE

====

Reported values of microsomal CLint for individual entries
- test.name: Human Liver Microsomal Stability (Test C)
- Assay type: in vitro ADME
- run.parameters: human, liver microsomes

compound | microsomal CLint
COc1cc(F)c(O[C@H]2CC[C@@](C)(C(=O)O)CC2)cc1C(=O)N[C@@H]1CCC[C@@H]1C(=O)NCC1(CF)CC1 [Example 56] | < 3 µL/min/mg
COc1cc(F)c(O[C@H]2CC[C@@H](C(=O)O)CC2)cc1C(=O)N[C@@H]1[C@H](C(=O)Nc2ccc(F)c(C(F)(F)F)c2)[C@@H]2CC[C@H]1O2 [Example 50] | < 3 µL/min/mg
COc1cc(C#N)c(O[C@H]2CC[C@@](C)(C(=O)O)CC2)cc1C(=O)N[C@@H]1[C@H]2CC[C@H](C2)[C@@H]1C(=O)NCC1(C)CCCCCC1 [Example 105] | > 300 µL/min/mg

====

- assay.target: UniProtKB Q9HBX9
- test.name: RXFP1 Hu cAMP (Test A)
- Assay type: cell-based
- Parameters: expressed in transfected cells; host or cells: Jump-In T-REx CHO-K1 cells (ThermoFisher), induced with 10 ng/ml doxycycline for 24 h
- run.parameters: RXFP1 Hu cAMP; read-out: Test A EC50
Below: a set of entries, each annotated with reported EC50.
observation.type: EC50

molecule | observation.type | measured.result
COc1cc(F)c(O[C@H]2CC[C@@](C)(C(=O)O)CC2)cc1C(=O)NC1COCC1C(=O)NCC(C)(C)C (single isomer, unassigned) | EC50 | > 40 µM
COc1cc(F)c(O[C@H]2CC[C@@H](C(=O)O)CC2)cc1C(=O)N[C@H]1[C@@H](C(=O)Nc2ccc(F)c(C(F)(F)F)c2)[C@H]2CC[C@@H]1O2 | EC50 | > 50 µM
COc1cc(C#N)c(O[C@H]2CC[C@@](C)(C(=O)O)CC2)cc1C(=O)N[C@@H]1[C@H]2CC[C@H](C2)[C@@H]1C(=O)NCC1CCOCC1 | EC50 | > 2.3 µM

====

Documented Test A Sinf across a set of compounds
- assay.target: human RXFP1 (Homo sapiens)
- Sequence (Q9HBX9 1-757): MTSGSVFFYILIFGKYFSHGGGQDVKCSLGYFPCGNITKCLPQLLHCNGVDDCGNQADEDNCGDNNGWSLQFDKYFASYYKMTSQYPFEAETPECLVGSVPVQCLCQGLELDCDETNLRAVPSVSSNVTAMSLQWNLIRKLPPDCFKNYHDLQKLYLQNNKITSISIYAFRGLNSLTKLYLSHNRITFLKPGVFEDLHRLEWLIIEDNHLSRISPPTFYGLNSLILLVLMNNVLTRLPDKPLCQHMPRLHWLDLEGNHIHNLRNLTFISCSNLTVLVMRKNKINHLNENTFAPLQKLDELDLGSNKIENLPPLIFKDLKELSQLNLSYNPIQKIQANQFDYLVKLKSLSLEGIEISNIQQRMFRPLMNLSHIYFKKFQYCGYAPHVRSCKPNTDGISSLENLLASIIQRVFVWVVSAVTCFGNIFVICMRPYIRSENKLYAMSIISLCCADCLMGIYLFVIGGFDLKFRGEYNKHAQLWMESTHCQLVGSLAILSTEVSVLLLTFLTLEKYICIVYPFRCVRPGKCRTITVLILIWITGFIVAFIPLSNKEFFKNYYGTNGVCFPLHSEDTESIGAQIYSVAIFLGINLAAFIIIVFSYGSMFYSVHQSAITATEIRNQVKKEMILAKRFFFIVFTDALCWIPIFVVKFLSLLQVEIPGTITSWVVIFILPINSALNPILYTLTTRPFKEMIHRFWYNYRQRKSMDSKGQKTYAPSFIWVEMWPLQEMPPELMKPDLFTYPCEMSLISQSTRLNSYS
- test.name: RXFP1 Hu cAMP (Test A)
- Assay type: cell-based
- Design: expressed in transfected cells; host or cells: Jump-In T-REx CHO-K1 cells (ThermoFisher), induced with 10 ng/ml doxycycline for 24 h
- run.parameters: RXFP1 Hu cAMP

compound | Test A Sinf, %
COc1cc(F)c(O[C@H]2CC[C@@](OC)(C(=O)O)CC2)cc1C(=O)N[C@@H]1[C@@H]2CC[C@@H](C2)[C@@H]1C(=O)Nc1cccc(S(=O)(=O)C(F)(F)F)c1 | 112
COc1cc(F)c(O[C@H]2CC[C@@](C)(C(=O)O)CC2)cc1C(=O)N[C@@H]1[C@@H](OC)CC[C@@H]1C(=O)Nc1cccc(S(=O)(=O)C(F)(F)F)c1 (racemic) | 91
COc1cc(F)c(O[C@H]2CC[C@@](C)(C(=O)O)CC2)cc1C(=O)N[C@@H]1[C@H]2CC[C@H](C2)[C@@H]1C(=O)NCC(C)(C)C#N | 111
COc1cc(F)c(O[C@H]2CC[C@@H](C(=O)O)CC2)cc1C(=O)N[C@@H]1[C@H]2CC[C@H](C2)[C@@H]1C(=O)Nc1cccc(OC(F)(F)F)c1 | 102
